tested.on: T1, human EphB1 (Homo sapiens, UniProt P54762)
T1 construct: a protein of the extracellular region of each human Eph receptor fused with the SEAP protein and the His tag; made in house; host or cells: Expi293F cells (culture supernatant)
T1 sequence (P54762 18-540 limits assumed): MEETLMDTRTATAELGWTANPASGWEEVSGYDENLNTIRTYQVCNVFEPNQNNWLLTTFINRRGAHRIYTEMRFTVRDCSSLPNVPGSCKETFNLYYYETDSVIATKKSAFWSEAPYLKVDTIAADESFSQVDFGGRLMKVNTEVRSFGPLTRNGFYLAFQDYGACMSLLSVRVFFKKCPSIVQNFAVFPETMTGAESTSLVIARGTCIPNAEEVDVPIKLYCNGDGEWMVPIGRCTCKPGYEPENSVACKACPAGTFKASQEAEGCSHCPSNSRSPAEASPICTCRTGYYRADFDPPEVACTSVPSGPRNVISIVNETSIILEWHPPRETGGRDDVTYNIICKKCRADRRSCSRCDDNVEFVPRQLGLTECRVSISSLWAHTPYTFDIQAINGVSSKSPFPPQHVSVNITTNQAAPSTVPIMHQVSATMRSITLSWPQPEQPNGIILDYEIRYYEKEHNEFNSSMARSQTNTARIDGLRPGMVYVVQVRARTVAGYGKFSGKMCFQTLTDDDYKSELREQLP
experiment: Selectivity ELISA of humanized antibodies for human Eph receptor
Type: binding
measurement.parameters: coated protein 1 nM
Form field: hEphB1-SEAP-: absorbance at 450 nm, percentage with respect to hEphA4-SEAP-His as 100% (one value per entry).
Quick reminder: number only, in %, skip the unit.

{"molecule": "77 (antibody, V domains shown, synthetic humanized antibody heavy chain variable region sequence; synthetic humanized antibody light chain variable region sequence) VH: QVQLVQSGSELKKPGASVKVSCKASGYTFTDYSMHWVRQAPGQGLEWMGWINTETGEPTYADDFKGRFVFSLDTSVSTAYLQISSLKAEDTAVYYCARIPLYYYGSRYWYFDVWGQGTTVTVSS VL: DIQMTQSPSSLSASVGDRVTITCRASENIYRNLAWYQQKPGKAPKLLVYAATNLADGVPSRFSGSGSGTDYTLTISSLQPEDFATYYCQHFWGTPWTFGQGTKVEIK", "value.reported": 4.6}

# context switch: different molecule, same hEphB1-SEAP-: absorbance at 450 nm, percentage with respect to hEphA4-SEAP-His as 100%
Task item: Tell me the measured hEphB1-SEAP-: absorbance at 450 nm, percentage with respect to hEphA4-SEAP-His as 100% of 67 (antibody, V domains shown, synthetic humanized antibody heavy chain variable region sequence; synthetic humanized antibody light chain variable region sequence) VH: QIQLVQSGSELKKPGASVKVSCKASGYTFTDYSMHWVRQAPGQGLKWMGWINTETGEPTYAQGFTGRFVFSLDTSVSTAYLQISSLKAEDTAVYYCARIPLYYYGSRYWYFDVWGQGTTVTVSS VL: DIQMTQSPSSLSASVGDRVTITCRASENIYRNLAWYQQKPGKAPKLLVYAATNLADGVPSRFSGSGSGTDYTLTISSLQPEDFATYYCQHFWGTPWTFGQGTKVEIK , please.
Reply: 4.6
